study-system: T1, human programmed cell death protein 1 (hPD-1) C93S (aa 24-167) (Homo sapiens, UniProt Q15116, C93S)
T1 construct: made as a fusion with a TEV site and human Fc; the Fc was cut off with TEV protease; source: Expi293F, purified (Protein A, TEV cleavage of Fc, SEC; monomer fractions); not shown: Fc (human), C-terminal, cleaved
T1 sequence (Q15116 24-167 C93S): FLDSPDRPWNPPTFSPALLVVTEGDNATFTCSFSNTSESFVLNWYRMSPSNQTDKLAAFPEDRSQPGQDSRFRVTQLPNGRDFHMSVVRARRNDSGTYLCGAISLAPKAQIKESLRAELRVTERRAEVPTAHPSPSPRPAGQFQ
experimental-protocol: SPR; Carterra LSA; Fab from the ammonium sulfate precipitate of the culture supernatant immobilised on a NiHC200M chip; hPD-1 (1-1024 nM) or mPD-1-Fc (4-1024 nM) as analyte, fourfold dilution series, no regeneration; HBS-EP pH 7.4, 25 °C; medians over the spots of a construct, KD = koff/kon
run-conditions: one partner purified
Reported koff by item:

Solved entries (count: 2):
{"binder": "toripalimab Fab H.S53A (Fab, V domains shown, heavy chain of Sm3 with this change; numbers count from the chain's first residue; as the light chain of Sm3; source: Brevibacillus, culture supernatant (ammonium sulfate precipitate); not shown: 6xHis, C-terminal, kept; 6xHN, C-terminal, kept) VH: QGQLVQSGAEVKKPGASVKVSCKASGYTFTDYEMHWVRQAPIHGLEWIGVIEAETGGTAYNQKFKGRVTITADKSTSTAYMELSSLRSEDTAVYYCAREGITTVATTYYWYFDVWGQGTTVTVSS VL: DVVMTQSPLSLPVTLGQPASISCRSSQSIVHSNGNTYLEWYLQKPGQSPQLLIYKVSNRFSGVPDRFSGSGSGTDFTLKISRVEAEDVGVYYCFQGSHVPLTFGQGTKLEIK", "koff": "< 1e-05 s⁻¹"}
{"binder": "toripalimab Fab H.D113Y (Fab, V domains shown, heavy chain of Sm3 with this change; numbers count from the chain's first residue; as the light chain of Sm3; source: Brevibacillus, culture supernatant (ammonium sulfate precipitate); not shown: 6xHis, C-terminal, kept; 6xHN, C-terminal, kept) VH: QGQLVQSGAEVKKPGASVKVSCKASGYTFTDYEMHWVRQAPIHGLEWIGVIESETGGTAYNQKFKGRVTITADKSTSTAYMELSSLRSEDTAVYYCAREGITTVATTYYWYFYVWGQGTTVTVSS VL: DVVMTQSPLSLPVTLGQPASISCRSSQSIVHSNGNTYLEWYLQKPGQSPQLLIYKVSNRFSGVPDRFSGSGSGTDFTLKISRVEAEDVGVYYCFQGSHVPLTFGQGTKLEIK", "koff": "< 1e-05 s⁻¹"}

Next binder, koff to be filled in.
Exercise: Form field: reported koff of toripalimab Fab L.L101G (Fab, V domains shown, as the heavy chain of Sm3; light chain of Sm3 with this change; numbers count from the chain's first residue; source: Brevibacillus, culture supernatant (ammonium sulfate precipitate); not shown: 6xHis, C-terminal, kept; 6xHN, C-terminal, kept) VH: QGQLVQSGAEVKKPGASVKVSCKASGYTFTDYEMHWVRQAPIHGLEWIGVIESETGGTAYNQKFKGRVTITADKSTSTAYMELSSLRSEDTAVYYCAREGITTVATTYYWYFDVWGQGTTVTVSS VL: DVVMTQSPLSLPVTLGQPASISCRSSQSIVHSNGNTYLEWYLQKPGQSPQLLIYKVSNRFSGVPDRFSGSGSGTDFTLKISRVEAEDVGVYYCFQGSHVPGTFGQGTKLEIK
Solution: < 1e-05 s⁻¹
